# experimental_system: UniProt:P47901
# Sequence (P47901 whole entry): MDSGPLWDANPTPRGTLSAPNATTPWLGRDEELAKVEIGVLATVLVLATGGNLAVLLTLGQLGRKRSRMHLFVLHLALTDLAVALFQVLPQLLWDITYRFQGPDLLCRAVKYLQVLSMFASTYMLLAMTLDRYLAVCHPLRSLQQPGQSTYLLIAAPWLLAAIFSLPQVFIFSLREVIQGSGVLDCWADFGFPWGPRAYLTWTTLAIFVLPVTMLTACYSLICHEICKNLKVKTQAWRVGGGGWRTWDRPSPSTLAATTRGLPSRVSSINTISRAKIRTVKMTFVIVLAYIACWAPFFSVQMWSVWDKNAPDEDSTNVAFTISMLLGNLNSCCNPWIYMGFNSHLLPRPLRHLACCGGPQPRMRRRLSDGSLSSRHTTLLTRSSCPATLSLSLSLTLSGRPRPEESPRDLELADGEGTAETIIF
# method: Agonist activity at human V1b receptor expressed in CHO cells assessed as calcium mobilization measured after 30 mins by Fluo-4-AM dye based FLIPR assay
Bridge positions count the residues as written; N and C are the ends. Square brackets hold non-standard residues; d marks the D form. Peptide text beside a SMILES is read from it. Mpa = O=C(O)CCS
experimental_endpoint: pEC50
// field semantics: pEC50 = negative decimal log of concentration (mol/L)

compound	test_value
CC[C@H](C)[C@@H]1NC(=O)[C@H](Cc2ccc(O)cc2)NC(=O)CCSSC[C@@H](C(=O)N2CCC[C@H]2C(=O)N[C@@H](CC(C)C)C(=O)NCC(N)=O)NC(=O)[C@H](CC(N)=O)NC(=O)[C@H](CCCNC(=N)N)NC1=O ([Mpa]YIRNCPLG-NH2; disulfide 1-6)	8.05

Requested field: pEC50. Item: CC[C@H](C)[C@@H]1NC(=O)[C@H](Cc2ccc(O)cc2)NC(=O)CCSSC[C@@H](C(=O)N2CCC[C@H]2C(=O)N[C@@H](CO)C(=O)NCC(N)=O)NC(=O)[C@H](CC(N)=O)NC(=O)[C@H](CCC(N)=O)NC1=O ([Mpa]YIQNCPSG-NH2; disulfide 1-6)
9.19
